test system: nitric oxide (NO) production, RAW264.7; experiment: Inhibition of nitric oxide production in LPS-stimulated RAW264.7 macrophages (Griess reaction); assay type: cell-based, murine; conditions: Mus musculus; single compounds; RAW264.7, 1 μg/ml LPS, 24 hours
reported-metric: IC50 (µM)
Express the result in µM but write the number alone.

Here is how some compounds turned out for IC50.
CCCCCc1cc(OC)c(CC=C(C)C)c(O)c1C(=O)O: 10.9
C=C(C)C(O)Cc1c(OC)cc(CCCCC)c(C(=O)O)c1O (stereo not drawn): 22.1

Now consider a different compound.
## Input What value of IC50 has been reported for the following compound? C=C(C)C(O)Cc1c(OC)cc(CCc2ccccc2)c(C(=O)O)c1O (stereo not drawn)
## Output 14.6

Sourced from patent US8158681B2
